- Assay Explanation: Single dose PK, phase 1, healthy Japanese men
- Assay type: in vivo, human
- Details: male, human, plasma, sc, 0.001 mg, single SC bolus 0.001 mg, read-out: Tmax, median (range)
Where a SMILES comes first, the peptide text is derived from it. [ ]: non-standard residue; d: D form. Arg(Me) = CNC(=N)NCCC[C@H](N)C(=O)O; Hyp = O=C(O)[C@@H]1C[C@@H](O)CN1; azaGly = NNC(=O)O

Molecule	Tmax / min
CC(=O)O.CNC(=N)NCCC[C@H](NC(=O)[C@H](CC(C)C)NC(=O)NNC(=O)[C@H](Cc1ccccc1)NC(=O)[C@@H](NC(=O)[C@H](CC(N)=O)NC(=O)[C@@H]1C[C@@H](O)CN1C(=O)[C@@H](Cc1ccc(O)cc1)NC(C)=O)[C@@H](C)O)C(=O)N[C@@H](Cc1c[nH]c2ccccc12)C(N)=O [API-MA] (Ac-[dY][Hyp]NTF[azaGly]L[Arg(Me)]W-NH2)	30

----------
- Assay Explanation: Single dose PK, phase 1, healthy European men
- Assay type: in vivo, human
- Details: male, human, urine and plasma, subcutaneous, 2-hour INF 3 mg, geometric mean (% CV), read-out: CLr (renal clearance) (converted)
Where a SMILES comes first, the peptide text is derived from it. [ ]: non-standard residue; d: D form. Arg(Me) = CNC(=N)NCCC[C@H](N)C(=O)O; Hyp = O=C(O)[C@@H]1C[C@@H](O)CN1; azaGly = NNC(=O)O

Compound	Readout Units	CL renal
CC(=O)O.CNC(=N)NCCC[C@H](NC(=O)[C@H](CC(C)C)NC(=O)NNC(=O)[C@H](Cc1ccccc1)NC(=O)[C@@H](NC(=O)[C@H](CC(N)=O)NC(=O)[C@@H]1C[C@@H](O)CN1C(=O)[C@@H](Cc1ccc(O)cc1)NC(C)=O)[C@@H](C)O)C(=O)N[C@@H](Cc1c[nH]c2ccccc12)C(N)=O [API-MA] (Ac-[dY][Hyp]NTF[azaGly]L[Arg(Me)]W-NH2)	mL/min	13900

----------
- Assay Explanation: Pharmacokinetics in dogs after SC and IV administration
- Details: dog, in vivo, sc, 1 mg/kg
- Source text: The PK of API-MA was studied in dogs after SC and IV administration.
Where a SMILES comes first, the peptide text is derived from it. [ ]: non-standard residue; d: D form. Arg(Me) = CNC(=N)NCCC[C@H](N)C(=O)O; Hyp = O=C(O)[C@@H]1C[C@@H](O)CN1; azaGly = NNC(=O)O

Molecule	Readout Units	bioavailability
CNC(=N)NCCC[C@H](NC(=O)[C@H](CC(C)C)NC(=O)NNC(=O)[C@H](Cc1ccccc1)NC(=O)[C@@H](NC(=O)[C@H](CC(N)=O)NC(=O)[C@@H]1C[C@@H](O)CN1C(=O)[C@@H](Cc1ccc(O)cc1)NC(C)=O)[C@@H](C)O)C(=O)N[C@@H](Cc1c[nH]c2ccccc12)C(N)=O [Compound 1] (Ac-[dY][Hyp]NTF[azaGly]L[Arg(Me)]W-NH2)	%	84

----------
- Assay Explanation: Single dose PK, phase 1, healthy European men
- Format: in vivo, human
- Details: male, human, plasma, single SC 0.03 mg, read-out: Tmax (median)
Where a SMILES comes first, the peptide text is derived from it. [ ]: non-standard residue; d: D form. Arg(Me) = CNC(=N)NCCC[C@H](N)C(=O)O; Hyp = O=C(O)[C@@H]1C[C@@H](O)CN1; azaGly = NNC(=O)O

Molecule	Readout Units	Tmax
CC(=O)O.CNC(=N)NCCC[C@H](NC(=O)[C@H](CC(C)C)NC(=O)NNC(=O)[C@H](Cc1ccccc1)NC(=O)[C@@H](NC(=O)[C@H](CC(N)=O)NC(=O)[C@@H]1C[C@@H](O)CN1C(=O)[C@@H](Cc1ccc(O)cc1)NC(C)=O)[C@@H](C)O)C(=O)N[C@@H](Cc1c[nH]c2ccccc12)C(N)=O [API-MA] (Ac-[dY][Hyp]NTF[azaGly]L[Arg(Me)]W-NH2)	min	30

----------
- Assay Explanation: Single dose PK, phase 1, healthy European men
- Format: in vivo, human
- Details: male, human, plasma, single SC 0.3 mg, geometric mean
Where a SMILES comes first, the peptide text is derived from it. [ ]: non-standard residue; d: D form. Arg(Me) = CNC(=N)NCCC[C@H](N)C(=O)O; Hyp = O=C(O)[C@@H]1C[C@@H](O)CN1; azaGly = NNC(=O)O
Observed Property: Cmax (ng/mL)

Compound	Result Number
CC(=O)O.CNC(=N)NCCC[C@H](NC(=O)[C@H](CC(C)C)NC(=O)NNC(=O)[C@H](Cc1ccccc1)NC(=O)[C@@H](NC(=O)[C@H](CC(N)=O)NC(=O)[C@@H]1C[C@@H](O)CN1C(=O)[C@@H](Cc1ccc(O)cc1)NC(C)=O)[C@@H](C)O)C(=O)N[C@@H](Cc1c[nH]c2ccccc12)C(N)=O [API-MA] (Ac-[dY][Hyp]NTF[azaGly]L[Arg(Me)]W-NH2)	4.35

----------
- Assay Explanation: Pharmacokinetics in monkeys after SC and IV administration
- Details: monkey, in vivo; monkeys, SC 0.1 mg/kg; read-out: AUC(0-24)
Where a SMILES comes first, the peptide text is derived from it. [ ]: non-standard residue; d: D form. Arg(Me) = CNC(=N)NCCC[C@H](N)C(=O)O; Hyp = O=C(O)[C@@H]1C[C@@H](O)CN1; azaGly = NNC(=O)O
Observed Property: AUC(0-t) (ng·h/mL)

Molecule	Readout Units	Result Number
CC(=O)O.CNC(=N)NCCC[C@H](NC(=O)[C@H](CC(C)C)NC(=O)NNC(=O)[C@H](Cc1ccccc1)NC(=O)[C@@H](NC(=O)[C@H](CC(N)=O)NC(=O)[C@@H]1C[C@@H](O)CN1C(=O)[C@@H](Cc1ccc(O)cc1)NC(C)=O)[C@@H](C)O)C(=O)N[C@@H](Cc1c[nH]c2ccccc12)C(N)=O [API-MA] (Ac-[dY][Hyp]NTF[azaGly]L[Arg(Me)]W-NH2)	ng·h/mL	295

----------
- Assay Explanation: Single dose PK, phase 1, healthy Japanese men
- Type: in vivo, human
- Details: male, human, plasma, sc, 0.04 mg, single SC bolus 0.04 mg, read-out: Tmax, median (range)
Where a SMILES comes first, the peptide text is derived from it. [ ]: non-standard residue; d: D form. Arg(Me) = CNC(=N)NCCC[C@H](N)C(=O)O; Hyp = O=C(O)[C@@H]1C[C@@H](O)CN1; azaGly = NNC(=O)O

Molecule	Tmax [min]
CC(=O)O.CNC(=N)NCCC[C@H](NC(=O)[C@H](CC(C)C)NC(=O)NNC(=O)[C@H](Cc1ccccc1)NC(=O)[C@@H](NC(=O)[C@H](CC(N)=O)NC(=O)[C@@H]1C[C@@H](O)CN1C(=O)[C@@H](Cc1ccc(O)cc1)NC(C)=O)[C@@H](C)O)C(=O)N[C@@H](Cc1c[nH]c2ccccc12)C(N)=O [API-MA] (Ac-[dY][Hyp]NTF[azaGly]L[Arg(Me)]W-NH2)	30

----------
- Assay Explanation: Multiple-dose PK, 2-hour SC infusion once daily for 14 days, Japanese prostate cancer patients
- Assay type: in vivo, human
- Details: male, human, in vivo, sc, 1 mg/day, Japanese prostate cancer patients, 2-hour SC infusion 1.0 mg/day, Day 14, mean
Where a SMILES comes first, the peptide text is derived from it. [ ]: non-standard residue; d: D form. Arg(Me) = CNC(=N)NCCC[C@H](N)C(=O)O; Hyp = O=C(O)[C@@H]1C[C@@H](O)CN1; azaGly = NNC(=O)O

Compound	Tmax [h]
CC(=O)O.CNC(=N)NCCC[C@H](NC(=O)[C@H](CC(C)C)NC(=O)NNC(=O)[C@H](Cc1ccccc1)NC(=O)[C@@H](NC(=O)[C@H](CC(N)=O)NC(=O)[C@@H]1C[C@@H](O)CN1C(=O)[C@@H](Cc1ccc(O)cc1)NC(C)=O)[C@@H](C)O)C(=O)N[C@@H](Cc1c[nH]c2ccccc12)C(N)=O [API-MA] (Ac-[dY][Hyp]NTF[azaGly]L[Arg(Me)]W-NH2)	2.11

----------
- Assay Explanation: Pharmacokinetics in rats after SC and IV administration
- Details: rat, in vivo, sc, 1 mg/kg
Where a SMILES comes first, the peptide text is derived from it. [ ]: non-standard residue; d: D form. Arg(Me) = CNC(=N)NCCC[C@H](N)C(=O)O; Hyp = O=C(O)[C@@H]1C[C@@H](O)CN1; azaGly = NNC(=O)O
Observed Property: Tmax (min)

Compound	Result Number
CNC(=N)NCCC[C@H](NC(=O)[C@H](CC(C)C)NC(=O)NNC(=O)[C@H](Cc1ccccc1)NC(=O)[C@@H](NC(=O)[C@H](CC(N)=O)NC(=O)[C@@H]1C[C@@H](O)CN1C(=O)[C@@H](Cc1ccc(O)cc1)NC(C)=O)[C@@H](C)O)C(=O)N[C@@H](Cc1c[nH]c2ccccc12)C(N)=O [Compound 1] (Ac-[dY][Hyp]NTF[azaGly]L[Arg(Me)]W-NH2)	54
